Where these numbers come from: patent US10206907B2

- target.of.assay: Recombinant human JAK2 catalytic domain (Homo sapiens (Human), UniProt O60674)
- Sequence (O60674 808-1132): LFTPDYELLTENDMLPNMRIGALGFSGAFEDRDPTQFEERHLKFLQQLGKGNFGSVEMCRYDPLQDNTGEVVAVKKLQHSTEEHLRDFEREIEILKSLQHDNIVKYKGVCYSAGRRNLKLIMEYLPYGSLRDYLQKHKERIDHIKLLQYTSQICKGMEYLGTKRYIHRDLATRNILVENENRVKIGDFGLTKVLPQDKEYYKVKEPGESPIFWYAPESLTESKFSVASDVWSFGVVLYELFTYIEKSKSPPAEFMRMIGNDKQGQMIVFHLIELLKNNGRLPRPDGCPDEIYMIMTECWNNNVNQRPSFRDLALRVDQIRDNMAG
- measurement.notes: JAK2 inhibition assay
- Assay type: biochemical
- protocol.conditions: semi-quantitative score
- Experimental: After 90 min at 30° C., reactions were stopped by adding of 25 μL/well of 150 mM phosphoric acid. […] Plates were washed 6 times with 300 μL per well of a 75 mM phosphoric acid solution and the bottom of the plates was sealed. 40 μL/well of Microscint-20 was added, the top of the plates was sealed and readout was performed using the Topcount (Perkin Elmer). […]
pIC50: −log10 of the molar value.
# pIC50 listing for each entry below

Solved entries (count: 7):
# molecule, pIC50
records = [
    ("N#Cc1ccc(-c2ccc(-c3cccc4nc(NC(=O)C5CC5)nn34)cc2)cn1 [Compound 239]", "6.30 to 7.00"),
    ("O=C(NCc1ccccc1)c1ccc(-c2cccc3nc(NC(=O)C4CC4)nn23)cc1 [Compound 56]", "6.30 to 7.00"),
    ("O=C(Cc1ccccc1)Nc1ccc(-c2cccc3nc(NC(=O)C4CC4)nn23)cc1 [Compound 23]", "6.30 to 7.00"),
    ("O=C(Nc1nc2cccc(-c3ccc(CN4CC[C@@H](O)C4)cc3)n2n1)C1CC1 [Compound 307]", "< 6.00"),
    ("O=C(c1ccccc1)c1ccc(-c2cccc3nc(NC(=O)C4CC4)nn23)cc1 [Compound 10]", "6.30 to 7.00"),
    ("C[C@@H]1CN(Cc2ccc(-c3cccc4nc(NC(=O)C5CC5)nn34)cc2)C[C@H](C)O1 [Compound 214]", "6.30 to 7.00"),
    ("O=C(Nc1nc2cccc(-c3ccc(OCC4CCC4)cc3)n2n1)C1CC1 [Compound 39]", "> 7.00"),
]

Now let's try a different one.
-- ask Would you kindly share the measured pIC50 for O=C(Nc1nc2cccc(-c3ccc(CNc4cc(C(F)(F)F)ccc4F)cc3)n2n1)C1CC1 [Compound 248] ?
-- reply 6.30 to 7.00

###

// reported IC50 per item
- target.of.assay: Recombinant human JAK1 catalytic domain (Homo sapiens (Human))
- Sequence (P23458 850-1154): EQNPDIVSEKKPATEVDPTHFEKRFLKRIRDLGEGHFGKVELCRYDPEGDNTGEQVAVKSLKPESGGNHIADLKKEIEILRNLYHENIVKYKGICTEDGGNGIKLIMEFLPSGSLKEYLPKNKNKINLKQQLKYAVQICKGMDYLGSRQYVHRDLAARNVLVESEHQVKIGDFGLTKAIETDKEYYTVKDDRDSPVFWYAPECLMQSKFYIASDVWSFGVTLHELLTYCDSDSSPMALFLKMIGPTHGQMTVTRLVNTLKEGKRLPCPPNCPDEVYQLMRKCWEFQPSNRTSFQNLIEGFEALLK
- measurement.notes: JAK1 inhibition assay
- Assay type: biochemical
- protocol.conditions: semi-quantitative score

Examples with their reported IC50 follow.
# molecular.string, IC50
rows = [
    ("CN(CCc1ccccn1)Cc1ccc(-c2cccc3nc(NC(=O)C4CC4)nn23)cc1", "> 1000 nM"),
    ("O=C(COc1ccc(-c2cccc3nc(NC(=O)C4CC4)nn23)cc1)Nc1cccc(F)c1", "< 100 nM"),
    ("CN(C)CCN(Cc1ccccc1)C(=O)c1ccc(-c2cccc3nc(NC(=O)C4CC4)nn23)cc1", "< 100 nM"),
    ("O=C(NCCCN1CCOCC1)c1ccc(-c2cccc3nc(NC(=O)C4CC4)nn23)cc1", "101 to 500 nM"),
    ("CN1CCN(c2ccc(-c3cccc4nc(NC(=O)C5CC5)nn34)cc2)CC1", "101 to 500 nM"),
]

-- ask Value lookup for IC50; key = O=C(Nc1nc2cccc(-c3ccc(CC(=O)N4CCCCC4)cc3)n2n1)C1CC1
-- reply < 100 nM

-- ask Can you look up the measured IC50 of O=C(Nc1nc2cccc(-c3ccc(-c4cccnc4)cc3)n2n1)C1CC1 for me?
-- reply < 100 nM

-- ask # input molecule: O=C(Nc1nc2cccc(-c3ccc(OCc4ccc(Cl)nc4)cc3)n2n1)C1CC1 ; wanted: its IC50
-- reply < 100 nM

-- ask // returns reported IC50 for input O=C(Nc1ccncc1)c1ccc(-c2cccc3nc(NC(=O)C4CC4)nn23)cc1
-- reply < 100 nM
